Reference for the values: patent US5807700A

Biological target: recombinant EhADH2 (Entamoeba histolytica)
Construct: a NcoI site at the initiating ATG codon using PCR with the EhADH2 cDNA as the template
Sequence (Q24803 1-870): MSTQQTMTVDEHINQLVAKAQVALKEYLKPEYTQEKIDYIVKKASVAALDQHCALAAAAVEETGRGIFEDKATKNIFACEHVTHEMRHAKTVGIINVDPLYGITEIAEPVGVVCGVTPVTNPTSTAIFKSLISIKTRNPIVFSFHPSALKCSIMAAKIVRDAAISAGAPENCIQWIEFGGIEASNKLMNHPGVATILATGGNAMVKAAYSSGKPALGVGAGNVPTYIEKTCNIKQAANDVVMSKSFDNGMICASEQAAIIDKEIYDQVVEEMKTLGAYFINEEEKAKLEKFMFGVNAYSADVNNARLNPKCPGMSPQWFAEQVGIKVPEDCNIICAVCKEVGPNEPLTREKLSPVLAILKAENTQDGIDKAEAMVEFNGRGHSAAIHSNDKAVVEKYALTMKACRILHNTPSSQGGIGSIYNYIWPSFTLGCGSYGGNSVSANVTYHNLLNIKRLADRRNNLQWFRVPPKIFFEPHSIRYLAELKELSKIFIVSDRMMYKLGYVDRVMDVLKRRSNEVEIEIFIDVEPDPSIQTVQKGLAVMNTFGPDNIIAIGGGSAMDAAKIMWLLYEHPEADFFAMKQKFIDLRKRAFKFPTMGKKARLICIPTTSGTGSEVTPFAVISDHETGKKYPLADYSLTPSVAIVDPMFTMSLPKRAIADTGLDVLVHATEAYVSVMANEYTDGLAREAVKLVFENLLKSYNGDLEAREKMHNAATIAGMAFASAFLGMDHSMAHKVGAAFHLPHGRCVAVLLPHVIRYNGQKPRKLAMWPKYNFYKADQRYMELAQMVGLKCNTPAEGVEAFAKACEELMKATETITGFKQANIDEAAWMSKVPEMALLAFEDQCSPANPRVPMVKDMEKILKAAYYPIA
Assay: Inhibition of purified recombinant EhADH2 enzyme (Ki)
Details: read-out: Ki for the recombinant EhADH2 molecule

compound_structure_string: c1cn[nH]c1
subject_of_test: recombinant EhADH2 (Entamoeba histolytica)
Ki (mM): 7.24

---

Target: purified recombinant EhADH2 (Entamoeba histolytica)
Construct: a NcoI site at the initiating ATG codon using PCR with the EhADH2 cDNA as the template; made in house; host or cells: E. coli SHH31(DE3) carrying pET/EhADH2
Experiment: Substrate specificity and kinetics, ADH activity of purified recombinant EhADH2
Assay type: biochemical
Details: purified recombinant EhADH2, 1 mM NAD+, pH 9.5
Method: ADH activity of the supernatant fraction from bacterial lysates, or of the purified recombinant enzyme was assayed spectrophotometrically by measuring the decrease in absorbance at 340 nm following the oxidation of NADH to […] (21). The cuvette contained 6 mM DTT, 5 mM MgSO4, 0.1 mM Fe(NH4)2 (SO4)2, 0.4 mM NADH, 10 mM acetaldehyde, and 0.1 M MOPS-KOH buffer (pH 7.5) to give a final volume of 1.0 ml. MOPS=3-[N-Morpholino]propanesulfonic acid; DTT=dithiothreitol. […]
measure_name: substrate for the enzyme (ADH reactivity)

compound: CCC(C)O (stereo not shown) [sec-butanol]
recorded_measurement: No reactivity
//
compound: CC(C)O [isopropanol]
recorded_measurement: No reactivity
